Target: Mcl-1/Bim interaction, recombinant human Mcl-1 (171-327) (Homo sapiens, UniProt Q07820)
Construct: made in house
Sequence (Q07820 171-327): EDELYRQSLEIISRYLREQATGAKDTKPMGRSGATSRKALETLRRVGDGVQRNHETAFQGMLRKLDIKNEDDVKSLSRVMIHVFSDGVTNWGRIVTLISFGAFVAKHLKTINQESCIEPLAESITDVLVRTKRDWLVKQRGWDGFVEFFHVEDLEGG
Assay: Cell free Mcl-1: Bim Affinity Assay (Mcl-1 HTRF)
Format: binding
Details: cell free Mcl-1:Bim TR-FRET, recombinant human Mcl-1 (171-327)
measurement kind: IC50
Remember to put the unit after the number in your answer.

Inquiry: Quote IC50 with test system Mcl-1/Bim interaction, recombinant human Mcl-1 (171-327) (Homo sapiens, UniProt Q07820) for `C[C@@H]1[C@@H](C)C/C=C/[C@H](OCCN2CCCC(F)(F)C2)[C@@H]2CC[C@H]2CN2C[C@@]3(CCCc4cc(Cl)ccc43)COc3ccc(cc32)C(=O)NS1(=O)=O`
Reply text: 4.87 nM

Inquiry: Quote IC50 with test system Mcl-1/Bim interaction, recombinant human Mcl-1 (171-327) (Homo sapiens, UniProt Q07820) for O=C1NS(=O)(=O)C[C@@H](C2CC2)C/C=C/[C@H](O)[C@@H]2CC[C@H]2CN2C[C@@]3(CCCc4cc(Cl)ccc43)COc3ccc1cc32 (single isomer, unassigned) [Example 684]
Reply text: 11 nM

Inquiry: Quote IC50 with test system Mcl-1/Bim interaction, recombinant human Mcl-1 (171-327) (Homo sapiens, UniProt Q07820) for CC(C)(O)C[C@@H]1CC/C=C/[C@H](O)[C@@H]2CC[C@H]2CN2C[C@@]3(CCCc4cc(Cl)ccc43)COc3ccc(cc32)C(=O)NS1(=O)=O (single isomer, unassigned)
Reply text: 0.598 nM

Inquiry: Quote IC50 with test system Mcl-1/Bim interaction, recombinant human Mcl-1 (171-327) (Homo sapiens, UniProt Q07820) for O=C1NS(=O)(=O)[C@H](CO)CCCC[C@H](O)[C@@H]2CC[C@H]2CN2C[C@@]3(CCCc4cc(Cl)ccc43)COc3ccc1cc32 (single isomer, unassigned)
Reply text: 0.995 nM

Inquiry: Quote IC50 with test system Mcl-1/Bim interaction, recombinant human Mcl-1 (171-327) (Homo sapiens, UniProt Q07820) for O=C1NS(=O)(=O)CC=CCC(O)CC2CCC2CN2CC3(CCCc4cc(Cl)ccc43)COc3ccc1cc32 (single isomer, unassigned)
Reply text: 6.1 nM

Inquiry: Quote IC50 with test system Mcl-1/Bim interaction, recombinant human Mcl-1 (171-327) (Homo sapiens, UniProt Q07820) for `C[C@@H]1[C@@H](C)C/C=C/[C@H](OCCC2CCN(C(=O)OC(C)(C)C)CC2)[C@@H]2CC[C@H]2CN2C[C@@]3(CCCc4cc(Cl)ccc43)COc3ccc(cc32)C(=O)NS1(=O)=O`
Reply text: 15.1 nM

Inquiry: Quote IC50 with test system Mcl-1/Bim interaction, recombinant human Mcl-1 (171-327) (Homo sapiens, UniProt Q07820) for COCC[C@@H]1C[C@H](C)/C=C/[C@H](OC)[C@@H]2CC[C@H]2CN2C[C@@]3(CCCc4cc(Cl)ccc43)COc3ccc(cc32)C(=O)NS1(=O)=O (single isomer, unassigned)
Reply text: 0.471 nM

Inquiry: Quote IC50 with test system Mcl-1/Bim interaction, recombinant human Mcl-1 (171-327) (Homo sapiens, UniProt Q07820) for CC[C@@H]1CC/C=C\C(=O)[C@@H]2CC[C@H]2CN2C[C@@]3(CCCc4cc(Cl)ccc43)COc3ccc(cc32)C(=O)NS1(=O)=O (single isomer, unassigned)
Reply text: 18.3 nM

Inquiry: Quote IC50 with test system Mcl-1/Bim interaction, recombinant human Mcl-1 (171-327) (Homo sapiens, UniProt Q07820) for CC(=O)N(C)[C@@H]1CCCCCS(=O)(=O)NC(=O)c2ccc3c(c2)N(C[C@@H]2CC[C@H]21)C[C@@]1(CCCc2cc(Cl)ccc21)CO3 (single isomer, unassigned)
Reply text: 8.33 nM

Inquiry: Quote IC50 with test system Mcl-1/Bim interaction, recombinant human Mcl-1 (171-327) (Homo sapiens, UniProt Q07820) for `CC[C@@H]1CC/C=C/[C@H](OC)[C@@H]2CC[C@H]2CN2C[C@@]3(CCCc4cc(Cl)ccc43)COc3cc(Cl)c(cc32)C(=O)NS1(=O)=O`
Reply text: 14.1 nM

Inquiry: Quote IC50 with test system Mcl-1/Bim interaction, recombinant human Mcl-1 (171-327) (Homo sapiens, UniProt Q07820) for `CC(=O)N1CCN(CCO[C@H]2/C=C/C[C@H](C)[C@@H](C)S(=O)(=O)NC(=O)c3ccc4c(c3)N(C[C@@H]3CC[C@H]32)C[C@@]2(CCCc3cc(Cl)ccc32)CO4)CC1`
Reply text: 0.284 nM

Inquiry: Quote IC50 with test system Mcl-1/Bim interaction, recombinant human Mcl-1 (171-327) (Homo sapiens, UniProt Q07820) for COC(=O)CC[C@@]1(C)CC/C=C\[C@H](O)[C@@H]2CC[C@H]2CN2C[C@@]3(CCCc4cc(Cl)ccc43)COc3ccc(cc32)C(=O)NS1(=O)=O (single isomer, unassigned)
Reply text: 2.69 nM

---

Target: Mcl-1/Bim interaction, recombinant human Mcl-1 (171-327) (Homo sapiens, UniProt Q07820)
Construct: made in house
Assay: Cell free Mcl-1: Bim Affinity Assay (Mcl-1 HTRF)
Assay type: binding
Details: cell free Mcl-1:Bim TR-FRET, recombinant human Mcl-1 (171-327)
measurement kind: log10 IC50 (log10 of the value in nM)
# values: log10(IC50), units nM

Inquiry: Quote log10 IC50 with test system Mcl-1/Bim interaction, recombinant human Mcl-1 (171-327) (Homo sapiens, UniProt Q07820) for CC(C)OC(=O)C[C@@H]1[C@@H](C)/C=C\C[C@H](O)[C@@H]2CC[C@H]2CN2C[C@@]3(CCCc4cc(Cl)ccc43)COc3ccc(cc32)C(=O)NS1(=O)=O [Example 569]
Reply text: 0.01

Inquiry: Quote log10 IC50 with test system Mcl-1/Bim interaction, recombinant human Mcl-1 (171-327) (Homo sapiens, UniProt Q07820) for O=C1NS(=O)(=O)CC/C=C/CC(=O)[C@@H]2CC[C@H]2CN2C[C@@]3(CCCc4cc(Cl)ccc43)COc3ccc1cc32 [Example 905]
Reply text: 1.15

Inquiry: Quote log10 IC50 with test system Mcl-1/Bim interaction, recombinant human Mcl-1 (171-327) (Homo sapiens, UniProt Q07820) for O=C1NS(=O)(=O)CC/C=C\[C@@H](O)C[C@@H]2CC[C@H]2CN2C[C@@]3(CCCc4cc(Cl)ccc43)COc3ccc1cc32 (single isomer, unassigned) [Example 883]
Reply text: 1.69

Inquiry: Quote log10 IC50 with test system Mcl-1/Bim interaction, recombinant human Mcl-1 (171-327) (Homo sapiens, UniProt Q07820) for CN(C(=O)C1CC1)[C@@H]1CCCCCS(=O)(=O)NC(=O)c2ccc3c(c2)N(C[C@@H]2CC[C@H]21)C[C@@]1(CCCc2cc(Cl)ccc21)CO3 (single isomer, unassigned) [Example 943]
Reply text: 1.21

Inquiry: Quote log10 IC50 with test system Mcl-1/Bim interaction, recombinant human Mcl-1 (171-327) (Homo sapiens, UniProt Q07820) for CC[C@@H]1C/C=C/[C@H](O)[C@@H]2CC[C@H]2CN2C[C@@]3(CCCc4cc(Cl)ccc43)COc3ccc(cc32)C(=O)NS1(=O)=O [Example 762]
Reply text: -0.24

Inquiry: Quote log10 IC50 with test system Mcl-1/Bim interaction, recombinant human Mcl-1 (171-327) (Homo sapiens, UniProt Q07820) for O=C1NS(=O)(=O)C[C@@H](CO)C/C=C/C[C@H](O)[C@@H]2CC[C@H]2CN2C[C@@]3(CCCc4cc(Cl)ccc43)COc3ccc1cc32.O=C1NS(=O)(=O)C[C@H](CO)C/C=C/C[C@H](O)[C@@H]2CC[C@H]2CN2C[C@@]3(CCCc4cc(Cl)ccc43)COc3ccc1cc32 (mixture of isomers) [Example 710]
Reply text: 1.41

Inquiry: Quote log10 IC50 with test system Mcl-1/Bim interaction, recombinant human Mcl-1 (171-327) (Homo sapiens, UniProt Q07820) for C[C@@H]1[C@@H](C)CCCC[C@H](O)[C@@H]2CC[C@H]2CN2C[C@@]3(CCCc4cc(Cl)ccc43)COc3ccc(cc32)C(=O)NS1(=O)=O (single isomer, unassigned) [Example 556]
Reply text: 0.22

Inquiry: Quote log10 IC50 with test system Mcl-1/Bim interaction, recombinant human Mcl-1 (171-327) (Homo sapiens, UniProt Q07820) for O=C1C[C@H](O)[C@@H]2CC[C@H]2CN2C[C@@]3(CCCc4cc(Cl)ccc43)COc3ccc(cc32)C(=O)NS(=O)(=O)CCN1 (single isomer, unassigned) [Example 680]
Reply text: 1.43

Inquiry: Quote log10 IC50 with test system Mcl-1/Bim interaction, recombinant human Mcl-1 (171-327) (Homo sapiens, UniProt Q07820) for COCCO[C@H]1/C=C/C[C@H]2C[C@@H]2S(=O)(=O)NC(=O)c2ccc3c(c2)N(C[C@@H]2CC[C@H]21)C[C@@]1(CCCc2cc(Cl)ccc21)CO3 (single isomer, unassigned) [Example 805]
Reply text: 0.03
